experimental.system: T1, SUV39H1, full length with N-terminal maltose-binding protein (UniProt O43463 1-412)
T1 construct: SUV39H1 (KMT1A), full length; Plasmid generated for this study; The His tag is surmised from the nickel column purification; also called KMT1A; source: Rosetta E. coli, purified (HisTrap FF nickel column, dialysis)
T1 sequence (looked up): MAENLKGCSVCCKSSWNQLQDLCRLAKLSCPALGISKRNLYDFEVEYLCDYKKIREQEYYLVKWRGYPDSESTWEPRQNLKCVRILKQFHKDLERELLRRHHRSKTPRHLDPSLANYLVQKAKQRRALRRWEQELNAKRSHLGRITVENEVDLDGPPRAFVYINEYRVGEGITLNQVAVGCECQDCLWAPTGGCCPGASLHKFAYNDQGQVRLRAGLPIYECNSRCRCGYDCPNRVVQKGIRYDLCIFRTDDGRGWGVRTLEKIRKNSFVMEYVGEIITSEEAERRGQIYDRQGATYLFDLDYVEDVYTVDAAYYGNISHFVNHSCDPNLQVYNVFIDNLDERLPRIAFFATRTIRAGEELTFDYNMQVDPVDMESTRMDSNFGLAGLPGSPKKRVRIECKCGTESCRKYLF
experiment.summary: fluorescence polarisation; enzyme titrated (0-10 uM, monomeric) against a fixed 20-100 nM of N-terminus 5-FAM labeled H3(1-17) peptide, with 100 uM SAH; 50 mM HEPES pH 7.9, 2 mM MgCl2, 0.5 mM DTT, 0.1 mM AEBSF, 0.01% Triton X-100, 10% glycerol; 10 min at 25 °C; one site specific binding fit
test.context: both partners purified
*: point of attachment. 5FAM = O=C1OC2(c3ccc(O)cc3Oc3cc(O)ccc32)c2ccc(C(=O)*)cc21
reported.property: pKd
Scale note: pKd = -log10(concentration in M).

binder	pKd
ARTKQTARKSTGGKAPR (peptide, UniProt P68431 2-18, looked up, 5-Carboxyfluorescein (5-FAM) on the N-terminus; dimethyl-lysine at 9, Histone H3, residues 1-17, lysine 9 dimethylated; Made on Rink-amide resin, so the C-terminus is probably an amide (surmised); also called H3K9me2; source: synthetic peptide (solid phase synthesis on Rink-amide ChemMatrix resin, C18-HPLC-purified)) [H3(1-17) K9 dimethylated peptide, N-terminus 5-FAM labeled]	6.32
ARTKQTARKSTGGKAPR (peptide, UniProt P68431 2-18, looked up, 5-Carboxyfluorescein (5-FAM) on the N-terminus; monomethyl-lysine at 9, Histone H3, residues 1-17, lysine 9 monomethylated; Made on Rink-amide resin, so the C-terminus is probably an amide (surmised); also called H3K9me1; source: synthetic peptide (solid phase synthesis on Rink-amide ChemMatrix resin, C18-HPLC-purified)) [H3(1-17) K9 monomethylated peptide, N-terminus 5-FAM labeled]	6.12

Using known records, supply pKd for 5FAM-ARTKQTARKSTGGKAPR-NH2 (peptide, UniProt P68431 2-18, looked up, Histone H3, residues 1-17, lysine 9 unmodified; Made on Rink-amide resin, so the C-terminus is probably an amide (surmised); Residues 1-17 are the same in H3.1, H3.2 and H3.3; also called H3K9un; source: synthetic peptide (solid phase synthesis on Rink-amide ChemMatrix resin, C18-HPLC-purified)) [H3(1-17) K9 unmodified peptide, N-terminus 5-FAM labeled] 6.30
